- Tested on: M19-MEL
- TEST PROTOCOL: NCI tumour cell line growth inhibition, 48 h
Active and inactive are the calls of the source. Rule as the data show it: active = GI50 up to about 1.1 µM and inactive = higher.
# key: entry, value: GI50
READOUT TYPE: GI50

* COc1ccccc1N1C(Cl)C(=O)C1c1c[nH]c2ccccc12 (stereo unspecified) | > 100 µM (inactive)
* Cc1ccc(Sc2cc([N+](=O)[O-])cc(Sc3ccc(C)cc3)c2Sc2ccc(C)cc2)cc1 | > 100 µM (inactive)
* COc1c(Br)cc(Br)c(OC)c1-c1ccc[nH]1 | 91 µM (inactive)
* N/C(=N\O)N/N=C\c1c2ccccc2c(Cl)c2ccccc12 | 6.61 µM (inactive)
* CN(c1ccccc1)c1c(-c2ccccc2)c(=O)oc2c1ccc1occc12 | > 100 µM (inactive)
* COc1ccc(C(=O)O/N=C2/CCC/C2=C\c2ccccc2)cc1 | > 100 µM (inactive)

---

- System: A549
- TEST PROTOCOL: NCI tumour cell line growth inhibition, 48 h
Activity calls are given as the source filed them. Rule as the data show it: active = GI50 up to about 1.1 µM and inactive = higher.
Outcome codes: active, inactive

• NC(c1ccccc1)(C(F)(F)F)P1(=O)OC(=O)c2ccccc2O1 (configuration not stated) = inactive
• C#CCn1c2c(c3ccccc3c1=O)C(=O)c1ccccc1-2 = inactive
• CN(c1ccccc1)c1c(-c2ccccc2)c(=O)oc2c1ccc1occc12 = inactive
• CN/N=C(/C=C/c1ccccc1)C(C)C = inactive
• CC(C)c1cccc(C(C)C)c1N1C(=O)C(=O)C(c2nc3ccccc3o2)C(=O)C1=O = inactive
• C=C(Nc1nc2ccc(C)cc2s1)C(=O)C(CC)C(=O)C(CC)CC1C(=O)NC(=O)NC1=O (configuration not stated) = inactive
• C/C=C1/CN2CCC34C(=C(C(=O)OC)C1CC23)Nc1ccc(O)cc14 (configuration not stated) = inactive
• C[N+](C)(C)C(Cc1c[nH]c(=S)[nH]1)C(=O)O (configuration not stated) = inactive
• Cc1cc(CN(Cc2ccccc2)Cc2nc3ccccc3[nH]2)c(O)c(CN(Cc2nc3ccccc3[nH]2)Cc2nc3ccccc3[nH]2)c1 = inactive
• CCOC(=O)C(=O)/C(=C/n1c(=S)[nH]c2ccc([N+](=O)[O-])cc21)C(=O)OCC = inactive
• CCOC(=O)Nc1ccc(S(=O)(=O)I)cc1.CCOC(=O)Nc1ccc(S(=O)(=O)I)cc1.CNC(=O)N=O.NC(=O)OCCCl = inactive
• CCOC(=O)c1cn2c(n1)sc1cccc(C)c12 = inactive
• COc1ccccc1N1C(Cl)C(=O)C1c1c[nH]c2ccccc12 (configuration not stated) = inactive
• COc1cc2c(cc1Oc1c(Oc3c(O)c(OC)cc4c3C(CC(C)C)N(C)CC4)c(OC)cc3c1C(CC(C)C)N(C)CC3)C(CC(C)C)N(C)CC2 (configuration not stated) = active
• O=C1CCCCC1CN1CCCC1 (configuration not stated) = inactive
• O=[N+]([O-])c1cc(Cl)ccc1S(=O)(=O)c1ccccc1 = inactive
• CN(C)CCCNc1cnc2cc3ccccc3cc2n1 = inactive
• COc1ccc(NC(=O)/C(O)=C/C(=O)c2ccccc2)cc1 = inactive
• COc1ccc([N+](=O)[O-])cc1[I+]c1cc([N+](=O)[O-])ccc1OC = inactive
• O=C1CSC(c2c[nH]c3ccccc23)N1c1cccc(Cl)c1 (configuration not stated) = inactive
• Cc1nc2c(n1CCCl)C(=O)c1ccccc1C2=O = inactive
• CN(C)C(=O)NC(=S)N(C)C = inactive
